assay-text: label from the status in PepcDB records

[
  {
    "sequence-content": "MPGSIPLIGERFPEMEVTTDHGVIKLPDHYVSQGKWFVLFSHPADFTPVCTTEFVSFARRYEDFQRLGVDLIGLSVDSVFSHIKWKEWIERHIGVRIPFPIIADPQGTVARRLGLLHAESATHTVRGVFIVDARGVIRTMLYYPMELGRLVDEILRIVKALKLGDSLKRAVPADWPNNEIIGEGLIVPPPTTEDQARARMESGQYRCLDWWFCWDTPASRDDVEEARRYLRRAAEKPAKLLYEEARTHLH",
    "protein production": "not failed"
  },
  {
    "sequence-content": "MELLNVLAAAFGAFALGSVWYMVLAEPWMQDAKVPRGPDGRPEGGMTPGIFAASFVLQLIVAGMMRHVFALSGIDSPGAGIVAGIGVGLFFIAPWITLNNLYGMRPLRLSLIDGGYATLACAVMGLILTLF",
    "protein production": "failed"
  },
  {
    "sequence-content": "MNAKSRPSRKLLKGAVIGPAQLMADQPFSVIRAVSRRSDRDHVGVLAAGVAFFSLLASFPALVTLITLYGLFTGPQEAVRQIAEAGVYLPRGVHDLLAEHLPRLAQASPGSLGLGAITSLLFSIWSASRGMGAMVDGVDIAYQVGDGRGFLRKSILVVGLTLAGLVVSAIALPLIVGLPALFDRLPLPLEIRWALALARWPLLFALVLGALAVLFRYAPDRENPRWRWVTPGALAAATLWILASGGLSLYVGLVSSYDQTYGTLAGVVVAMMWLYLASYAVLLGAEINAELEDRGMERIKKDQAAAKAAVARA",
    "protein production": "failed"
  },
  {
    "sequence-content": "MKRNNKSAIALIALSLLALSSGAAFAGHHWGNNDGMWQQGGSPLTTEQQATAQKIYDDYYTQTSALRQQLISKRYEYNALLTASSPDTAKINAVAKEMESLGQKLDEQRVKRDVAMAQAGIPRGAGMGYGGCGGYGGGYHRGGGHMGMGNW",
    "protein production": "not failed"
  }
]

###

assay-text: label from the status in PepcDB records
measure: protein production

[
  {
    "sequence-content": "MLTYQVKQGDTLNSIAADFRISTAALLQANPSLQAGLTAGQSIVIPGLPDPYTIPYHIAVSIGAKTLTLSLNNRVMKTYPIAVGKILTQTPTGEFYIINRQRNPGGPFGAYWLSLSKQHYGIHGTNNPASIGKAVSKGCIRMHNKDVIELASIVPNGTRVTINR",
    "measured-result": "not failed"
  },
  {
    "sequence-content": "MTHTTANQVIHYVDQDGNTVFDDNDSQTLDYERSVTIDEVTGEITAYGDWKAVDGDEFGSVTSSDKPGYAIDKPVVSGEKPTITNGKDGKVSDVEVTVTYTALEHHHHHH",
    "measured-result": "not failed"
  },
  {
    "sequence-content": "MSEPYGKAFSLMRAEAEPAWRAYTHHAFVEGLKAGTLPREAFLHYLQQDYVFLIHFSRAWALAVVKSETHSEMLAAVGTVNALVAEEMQLHIGICEASGISQEALFATRERAENLAYTRFVLEAGYSGDLLDLLAALAPCVMGYGEIGKRLTAEATSTLYGDWIDTYGGDDYQAACKAVGTLLDDALERRLGAEFTSSPRWSRLCQTFHTATELEVGFWQMGLTP",
    "measured-result": "not failed"
  }
]

###

assay-text: label from the status in PepcDB records

[
  {
    "sequence-content": "MAKKRITLPQNFDELITAGDVEALKAVYDKCELTAHNGRYSLNTALHYGGVPDELVIWLVEQGLDVNTLDYYGRTPLYKHATLGRDTVKLLYELGGDIQKPDTYGSTPLHTAAGFFRPKIVSFLIEKDADVNAKNDMGRTPLAEALATCRNSNVVQAAEIAEMLIKAGAEVVPEMAERVEIIGKDFEFHRENFNKDSLAETEAGLEKLYALFDVKPAPKRKIHDGVSPIIVKTGSWKEQYDELWEMLIPSSGAAKTVQGEVIRITGRVQDELYRNGGVNWDKDYRNMLNSLPNHFASGTPLSEEELKETKELISNIRANGEDEEVITERLRELSVLWVLLNPTPILLGKTNYNR",
    "protein production": "failed"
  },
  {
    "sequence-content": "MSKPLYVFDMDETLINADCAMIWNAFLVEKGIATQPNFIEEDQRLMALYAEGKMDMEDYLEFCMAPLADMPIAHVLMLVEECVEHHILPKQFEQSKTLIAQLDRDDIDMVIISASVTFLVEAVGRRLGIPVALGIDLVEKHGSYSAEIAGVPSYREGKVIRLKAWLDAQPESYSEVHFYTDSINDLPLCEYADYAYLVNPCPQLKARADKANWTLLRWN",
    "protein production": "failed"
  }
]

###

assay-text: label from the status in PepcDB records

[
  {
    "sequence-content": "MAYGKAHLEAQLKRALAEEIQALEDPRLFLLTVEAVRLSKDGSVLSVYVEAFREEEGALRALSRAERRLVAALARRVRMRRLPRLEFLPWRASPA",
    "protein production": "not failed"
  },
  {
    "sequence-content": "MILKTLRNIFITIVVIAIIVIGGLFGLNAYSNQHPNNHSINDWNKLNPLAPTYEYYVKTQKPSKVEVVDKEKDFYIYHYNQTGYTKDGKSKKIEYTASKKLKQNHYLVVREKSHTIQSFEEVKKSKIPTKAKEKL",
    "protein production": "failed"
  },
  {
    "sequence-content": "MSLNRRELLERISEYQFACIELNLYLDNNPRDKKALDSYNRYCDKFTQAVCDYESKYGALTNFGYESSEYPWSWISEPWPWDKSFYKLEHHHHHH",
    "protein production": "not failed"
  },
  {
    "sequence-content": "MQGENAPQRSAEVTILDKQAIDIPHPLPGQDDQEFWIYVQKGRLGPKREFQVGIHYYHALNPGDKGVLTYQGQRFLHFALKRLEHHHHHH",
    "protein production": "not failed"
  },
  {
    "sequence-content": "PSGATGKDGLAIPVGKDTAKSSLTVWEDFRCPACKIFETTYRPTLHELVGAGKLKIDYHLVTIIDDGRGGSGSRQAANAAACAQDAGKFTAYHDVLYDNQPDETVDSFADDSKLIELAGKVDGLDTPAFRKCVKDGTHNSWVVKSNAAFDSGGFKGTPTVLFGGKNLAADPTMTPAKLKQMVEAANK",
    "protein production": "failed"
  }
]

###

assay-text: label from the status in PepcDB records

[
  {
    "sequence-content": "MIGKHFIITGATSGLGFAITNELLQRGAHVTILARNIDKFNRIKENYFKPEHINVIKCDLMQRKDIESLQKFLNTPINGFIYSSGVGYFKSISEHSTREVVETYEVNLTNFNLLYKVIQPQLVKAAYIVGISSQAALVSQANAAHYGASKAGFSAVLNALRLEQPELKVLNVQPGPIDTPFQKNADPTLKYFKNYRHMMIQPQQLAKQIVEGIILNKIEINQPSWMQIMLKFYQLCPRTLEKLCPNLFKNKV",
    "protein production": "failed"
  },
  {
    "sequence-content": "LLGLGVGPGDPELITLKALRLLRAAPVVGYFVAKGKKGNAFGIIEAHLDQAQVRLPLVYPVTTEKLEPPLCYETIISDFYDTAAEQLAAHLDAGRDVAVICEGDPFFYGSYMYLHDRLATRYESEVVPGVCSMLGGAAVLGAPLVYRNQSLSVLSGVLPEEELRRRLADADAAVVMKLGRNFDKVRRVLVELGLERRALYVERATMANQRIVPLERVEPMASPYFSLIVVPGDKWQGGAGGE",
    "protein production": "failed"
  },
  {
    "sequence-content": "MDKQSSAGGVKRSVPCESNEVNETMPETPTGDSDPQPAPKKMKTSESSTILVVRYRRNVKRTSPEELLNDHARENRINPLQMEEEEFMEIMVEIPAK",
    "protein production": "failed"
  },
  {
    "sequence-content": "MIRHLLVAHDLTPEADVALARAAQLARQHDARVSLLHVYDPGLSASAVKTVSAMLQLKRKEAGLDEDSAIHLFRGQPIDGILQQTRALEPDLLLMGAHHQKTFERFGNTTLDQVVRRSRVPVLLAVREADEPYRQALSALDFSQCACTALRQAYRLLPVEADLHALHVFESPDDGVLGLPRQNAAHLATQAGLIEQLLSDEQERLPGVGPQLSHEVVPGVLPYSLDAALKQRQPELLALGRHSRNALMQALLGNLAQRYLRQPSCDVLVTS",
    "protein production": "failed"
  },
  {
    "sequence-content": "MDFSDLDYSDAGDSGWTMYLGHSSSVSLHHFDYHNGETKQEHDEDSSMVSDASSGPPYYCEETVHEDHLQQNTQYWCKSKSKNKNKNKKKVHEEQGYSERFNSSFDDTASSLEKVNSGFLQQAFPVDKLALDNQGGDNQRKRRG",
    "protein production": "failed"
  },
  {
    "sequence-content": "MITDEHIELFLAQAHRYGDAKLMLCSSGNLSWRIGEEALISGTGSWVPTLAKEKVSICNIASGTPTNGVKPSMESTFHLGVLRERPDVNVVLHFQSEYATAISCMKNKPTNFNVTAEIPCHVGSEIPVIPYYRPGSPELAKAVVEAMLKHNSVLLTNHGQVVCGKDFDQVYERATFFEMACRIIVQSGGDYSVLTPEEIEDLEIYVLGKKTK",
    "protein production": "not failed"
  },
  {
    "sequence-content": "MNYEEIVCDANNLYRAYKASVKTSKWKETTQKFMMNFLRYIFSIQDDLINRTLQNGPTQEFTLFERGRVRPITSIQIRDRIIRHVLCDEILLPEVKKHIIYDNCASIKGRGISHQRDRFEVHLRKYYRLYGNEGWILFGDFSKFYDNIIHEIAKRELLRLFDDDEFIDWLLTQIFDGFKIDVSYMTDEEYATCMTDTFNKLEYRNIPESKLTGEKWMEKSVNIGDQLSQVIGIYYPYRIDNYVKYVRSQKFYGRYMDDWYIMNPSKEELLDLLDHIHQIAEEYGIHINRKKTRIVKISSTYKFLQIKYSLTDSGKVIKRINPKRVTAMRRKLKRLAVKVKNEEISYENVENMFRSWMGGFYKLLSKEQRKNLIGLYEDLFEKSIEIVNKKMIIVDKTR",
    "protein production": "failed"
  },
  {
    "sequence-content": "MPAIMPMLWKQPFGNNLWGLKMKKVEKLLIIGIVLISSILLGAMTLAKPAQANASIVIVIDNEVKHRIPLMVEEEMQTYEFKFGEQTGYLEVKNGKVRMLEMPKEICPEGICSETGWIARSSQAIVCLPNKIIVTIQGLDDKNDEIL",
    "protein production": "failed"
  },
  {
    "sequence-content": "MIEHIIDIIIVLLAKLGYAGTFFGMLFESACIPIPSEIVLPFGGYLSSSSAPQGHTLNLVLVIISATLGGTVGSILAYTIGAKGGRILVYKYASKLHLSKEKIEKSEAVFDKYGDKIIFLSRLLPIIRTFISLPAGIAKMDFTKFTIYTLVGSAIWSTLLVYAGFVMGKNWESIRSYFHIADYLVAGAIILFIVYRIIVYIKKKTKK",
    "protein production": "failed"
  },
  {
    "sequence-content": "MRVFPVTLGPLQENAYLVETGEGPVLIDPGDEPEKLLALFQTTGLIPLAILLTHAHFDHVGAVAPLVEALDLPVYLHPLDLPLYEGADLAARAWGLAIPKPPLPVRPLEEGMRLFGFQVLHLPGHSPGHVAFYDPEGAQVFSGDLLFRGSVGRYDLPGADPKALFASLKRLLSLPPETRVHPGHGPGTTLGLEARTNPFLTGLEWEA",
    "protein production": "not failed"
  },
  {
    "sequence-content": "MSPRDVLDSIFAFPPNRDTLGGTSYLIVGNEGNILIDCPALDQTNLNFLRSHGGVRWLFLTHRGAIGRTAEIQQNYGCDILIQEQEAYLLPGLTVTTFTQEFAVTPTAKAIWTPGHSPGSSCLYYNHQGGVLFSGRHLLPNQKGEPVPLRTAKTFHWPRQIKSLQTILETLTPETLQYICPGANTGFLRGKRSIDTAYQRLASLDLKALLQTQPLILEHHHHHH",
    "protein production": "not failed"
  },
  {
    "sequence-content": "MKKKKYVNSGTVTLLSFAVESECTFLDYIKGGTQINFTVAIDFTASNGNPSQSTSLHYMSPYQLNAYALALTAVGEIIQHYDSDKMFPALGFGAKLPPDGRVSHEFPLNGNQENPSCCGIDGILEAYHRSLRTVQLYGPTNFAPVVTHVARNAAAVQDGSQYSVLLIITDGVISDMAQTKEAIVNAAKLPMSIIIVGVGQAEFDAMVELDGDDVRISSRGKLAERDIVQFVPFRDYVDRTGNHVLSMARLARDVLAEIPDQLVSYMKAQGIRPRPPPAAPTHSPSQSPARTPPASPLHTHI",
    "protein production": "failed"
  }
]

Data origin: a protein production outcome set (Wang et al. 2014)
